experiment: Therapeutic index, ratio of IC50 for human BEAS2B cells to MIC for methicillin-resistant Staphylococcus aureus
Assay type: toxicity
conditions: read-out: TI
property: selectivity ratio
Give bare numbers.

Give its selectivity ratio value. Item: O=C1/C(=C/c2ccc(F)cc2)Oc2cc(O)cc(O)c21
76

---

experiment: Therapeutic index, ratio of IC50 for human IMR90 cells to MIC for Clostridium perfringens
Format: toxicity
conditions: read-out: TI
property: selectivity ratio
Numbers only.

Give its selectivity ratio value. Item: O=C1/C(=C/c2ccccc2)Oc2cc(O)cc(O)c21
32

Where these numbers come from: ChEMBL document CHEMBL4400513
